- System: K562
- Assay Procedure: NCI tumour cell line growth inhibition, 48 h
Active and inactive are the calls of the source. No stated cut-off is given here; in the data, active = GI50 up to about 1.1 µM and inactive = higher.
Quantity Measured: GI50

Examples from the recorded data:
[
  {
    "Molecule": "N=C1CSC2=NC3=C(CCC/C3=C\\c3ccccc3)C(c3ccccc3)N12 (centres undefined)",
    "Target Desc": "K562",
    "Quantity Measured": "GI50",
    "Experimental Result": "3.21 µM (inactive)"
  },
  {
    "Molecule": "Cc1c(C)c(C)n(C2OC(CO)C(O)C(O)C2O)c(=S)c1C#N (centres undefined)",
    "Target Desc": "K562",
    "Quantity Measured": "GI50",
    "Experimental Result": "> 100 µM (inactive)"
  },
  {
    "Molecule": "CC(C)CCCC(C)[C@H]1CCC2[C@@H]3CCC4Cc5nc6c(nc5C[C@]4(C)C3CC[C@@]21C)CC1CC[C@@H]2C(C[C@@H](O)[C@@]3(C)C2C[C@@H]2OC4(CCC(C)CO4)C(C)[C@@H]23)[C@@]1(C)C6 (some centres undefined)",
    "Target Desc": "K562",
    "Quantity Measured": "GI50",
    "Experimental Result": "> 100 µM (inactive)"
  }
]

Next, consider the following molecule.
I'd like to know its GI50. The molecule in question is `Clc1cc(OCc2nn3c(Cc4ccccc4)nnc3s2)ccc1OCc1nn2c(Cc3ccccc3)nnc2s1` 95.9 µM (inactive)

---

- Test system: NCI-H23
- Assay Procedure: NCI tumour cell line growth inhibition, 48 h
Structures can show the parent of a compound that is named as a salt. Active and inactive are the calls of the source. Rule as the data show it: active = GI50 up to about 1.1 µM and inactive = higher.
Examples of molecules with documented GI50 follow.

Study these solved cases before continuing.
[
  {
    "Molecule": "CN(/N=C/c1ccccn1)C1=NCCCN1",
    "GI50": "> 100 µM (inactive)"
  },
  {
    "Molecule": "COc1cc2c(c(OC)c1OC)C(=O)[C@@H](O)[C@H]2NC(N)=O",
    "GI50": "> 100 µM (inactive)"
  },
  {
    "Molecule": "CN(C)CCC=C1c2ccccc2C=Cc2ccccc21 [CYCLOBENZAPRINE HYDROCHLORIDE]",
    "GI50": "18.7 µM (inactive)"
  },
  {
    "Molecule": "COc1c(C(=O)/C(=N/Nc2ccccc2)C(C)=O)c(O)c(OC)c2occc12",
    "GI50": "33.3 µM (inactive)"
  }
]

Please report the recorded GI50 for `Cc1cccc(-c2cc(O)c3c(C)ccnc3n2)c1` . 1.17 µM (inactive)

Same question, `NC(=O)NC1C(c2ccccc2)=C1c1ccccc1` this time 21.2 µM (inactive)

Repeat for the following molecule: COC(=O)C1=C(C(=O)OC)c2cc(OC)ccc2C(C(=S)N(C)C)S1 (stereo not given) > 100 µM (inactive)

---

- System: MOLT-4
- Assay Procedure: NCI tumour cell line growth inhibition, 48 h
Activity calls are given as the source filed them. Cut-off read from the data, not from the text of the source: active = GI50 up to about 1.1 µM and inactive = higher.
Quick list: GI50 per entry.

Use the examples below as a reference point.
[
  {
    "Molecule": "C=C(Br)CNC(=O)Nc1ccc(Cl)c(Cl)c1",
    "Quantity Measured": "GI50",
    "Experimental Result": "26.2 µM (inactive)"
  },
  {
    "Molecule": "CCOC(=O)NC(=O)c1cn(C2CCCCC2)c(=O)n(C)c1=O",
    "Quantity Measured": "GI50",
    "Experimental Result": "> 100 µM (inactive)"
  },
  {
    "Molecule": "CC(C)c1cc(C(C)C)c(S(=O)(=O)N=[N+]=[N-])c(C(C)C)c1",
    "Quantity Measured": "GI50",
    "Experimental Result": "21.3 µM (inactive)"
  },
  {
    "Molecule": "COc1cc2c(cc1OC)C1C(O)C(OC)C=C3CC[N+](C)(C2)C31 (stereo not given)",
    "Quantity Measured": "GI50",
    "Experimental Result": "> 100 µM (inactive)"
  },
  {
    "Molecule": "CC1=NN(c2ccccc2)C(=O)C1=C1SCCCS1",
    "Quantity Measured": "GI50",
    "Experimental Result": "16 µM (inactive)"
  },
  {
    "Molecule": "N=C(N)c1csc([C@@H]2O[C@H](CO)[C@@H](O)[C@H]2O)n1",
    "Quantity Measured": "GI50",
    "Experimental Result": "> 100 µM (inactive)"
  }
]

Now look at this entry.
Checklist item: GI50 tested on MOLT-4, entry `CC(=O)N/N=C1\NC(=O)C[C@H]2[C@@H]3CC=C4C[C@@H](OC(C)=O)CC[C@]4(C)[C@H]3CC[C@]12C` , value? > 100 µM (inactive)

The origin of these recorded values is ChEMBL document CHEMBL1201862.
